Test system: rat NaP2b (SLC34A2) (Rattus norvegicus, UniProt Q9JJ09)
Construct: host or cells: HEK293
Sequence (Q9JJ09 1-695): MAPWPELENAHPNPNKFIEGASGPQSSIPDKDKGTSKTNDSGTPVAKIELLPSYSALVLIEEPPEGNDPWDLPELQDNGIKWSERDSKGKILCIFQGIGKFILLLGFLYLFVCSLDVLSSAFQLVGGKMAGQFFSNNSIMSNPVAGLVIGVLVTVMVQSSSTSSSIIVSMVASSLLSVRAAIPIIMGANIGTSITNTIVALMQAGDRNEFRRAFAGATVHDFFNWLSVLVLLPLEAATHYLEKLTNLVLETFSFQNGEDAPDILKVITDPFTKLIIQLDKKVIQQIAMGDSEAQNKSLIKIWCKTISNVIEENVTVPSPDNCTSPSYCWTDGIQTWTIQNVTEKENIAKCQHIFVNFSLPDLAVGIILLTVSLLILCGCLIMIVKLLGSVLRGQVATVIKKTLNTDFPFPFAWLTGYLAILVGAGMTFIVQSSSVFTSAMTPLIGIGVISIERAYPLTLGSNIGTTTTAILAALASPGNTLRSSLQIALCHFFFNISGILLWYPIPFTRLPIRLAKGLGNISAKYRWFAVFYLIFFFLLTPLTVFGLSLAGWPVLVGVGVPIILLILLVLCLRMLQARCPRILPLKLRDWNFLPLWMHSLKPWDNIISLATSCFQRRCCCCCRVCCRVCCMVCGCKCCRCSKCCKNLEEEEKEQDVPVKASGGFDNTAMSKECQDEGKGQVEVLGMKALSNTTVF
Test summary: Inhibition of NaP2b-mediated Pi (33P) uptake in transfected HEK293 cells, rat NaP2b
Assay type: cell-based
Measurement conditions: HEK293 cells transfected with rat NaP2b, 100 uM phosphate, 0.1 nM to 30 uM, read-out: pIC50 range for rat Nap2b (converted)
Entries and their measured IC50 follow.

Compound: CCN(CC)c1ccc(NC(=O)c2cccc(C(=O)N(C)CCN3CCOCC3)c2)c(-c2cc(C(=O)NCc3cccc(C(F)(F)F)c3)ccn2)c1 [Example 25]
IC50: < 1 µM

Compound: CCOc1ccc(NC(=O)c2cccc(CSCCC(=O)O)c2)c(-c2cc(C(=O)NCc3cccc(C(F)(F)F)c3)ccn2)c1 [Example 29]
IC50: 1 to 7.94 µM

Compound: CCSc1ccc(NC(=O)c2cccc(CSCCC(=O)O)c2)c(-c2cc(C(=O)NCc3cccc(C(F)(F)F)c3)ccn2)c1 [Example 35]
IC50: 1 to 7.94 µM

Compound: O=C(O)CCSCc1cccc(C(=O)Nc2ccc(Cl)cc2-c2cc(C(=O)NCc3cccc(C(F)(F)F)c3)ccn2)c1 [Example 21]
IC50: 1 to 7.94 µM

Compound: COCCNC(=O)CCN(C)Cc1cccc(C(=O)Nc2ccc(N3CCCCC3)cc2-c2cc(C(=O)NCc3cccc(C(F)(F)F)c3)ccn2)c1 [Example 51]
IC50: 1 to 7.94 µM

Now take the following compound into account.
IC50 lookup needed for O=C(O)CCSCc1cccc(C(=O)Nc2ccc(N3CCCCC3)cc2-c2cc(C(=O)NCc3ccccc3)ccn2)c1 [Example 1.4] , thanks.
1 to 7.94 µM

---

IC50 listing for selected compounds.
Test system: human NaP2b (SLC34A2) (Homo sapiens, UniProt O95436)
Construct: host or cells: HEK293
Sequence (O95436 1-690): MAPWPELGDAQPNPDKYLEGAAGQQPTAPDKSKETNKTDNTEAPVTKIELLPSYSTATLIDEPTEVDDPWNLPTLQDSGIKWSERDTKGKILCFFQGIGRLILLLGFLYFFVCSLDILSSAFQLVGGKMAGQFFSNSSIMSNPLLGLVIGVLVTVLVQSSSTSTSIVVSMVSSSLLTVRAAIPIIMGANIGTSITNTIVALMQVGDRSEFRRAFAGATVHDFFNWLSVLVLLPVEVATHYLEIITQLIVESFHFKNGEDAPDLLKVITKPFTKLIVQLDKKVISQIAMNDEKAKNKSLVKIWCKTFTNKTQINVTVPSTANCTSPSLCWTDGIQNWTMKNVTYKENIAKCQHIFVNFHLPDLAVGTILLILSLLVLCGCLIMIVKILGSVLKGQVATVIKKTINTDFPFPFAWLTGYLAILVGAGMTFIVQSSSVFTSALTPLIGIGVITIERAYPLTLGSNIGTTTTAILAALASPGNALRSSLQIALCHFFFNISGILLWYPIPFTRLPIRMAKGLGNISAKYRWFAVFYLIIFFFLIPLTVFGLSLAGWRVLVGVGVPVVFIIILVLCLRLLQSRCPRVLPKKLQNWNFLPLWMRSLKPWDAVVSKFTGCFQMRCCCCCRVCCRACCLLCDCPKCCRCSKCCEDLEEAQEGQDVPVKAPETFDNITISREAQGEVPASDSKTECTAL
Test summary: Inhibition of NaP2b-mediated Pi (33P) uptake in transfected HEK293 cells, human NaP2b
Assay type: cell-based
Measurement conditions: HEK293 cells transfected with human NaP2b, 100 uM phosphate, 0.1 nM to 30 uM, read-out: pIC50 range for human NaP2b (converted)
Procedure: HEK293 cells were obtained from the American Type Culture collection and propagated per their instructions. […] After incubation for 3-30 minutes at room temperature, assay mixtures were removed, and the cells were washed twice with ice cold stop solution (137 mM sodium chloride, 14 mM Tris, pH 7.4). Cells were lysed by addition of 20 μL 0.1% Tween 80 followed by 100 μL scintillation fluid, and counted using a TopCount (Perkin Elmer). […]

API: value(readout= IC50, system= human NaP2b (SLC34A2) (Homo sapiens, UniProt O95436), query= CCN(CC)c1ccc(NC(=O)c2cccc(CCCOCCOCCOCCOCCC(=O)N3CCN(C(=O)c4cccc(CCCOCCOCCOCCOCCC(=O)O)c4)CC3)c2)c(-c2cc(C(=O)NCc3cccc(C(F)(F)F)c3)ccn2)c1 [Example 293] )
1000 to 7940 nM

---

Test system: rat NaP2b (SLC34A2) (Rattus norvegicus, UniProt Q9JJ09)
Construct: host or cells: HEK293
Test summary: Inhibition of NaP2b-mediated Pi (33P) uptake in transfected HEK293 cells, rat NaP2b
Type: cell-based
Measurement conditions: HEK293 cells transfected with rat NaP2b, 100 uM phosphate, 0.1 nM to 30 uM, read-out: pIC50 range for rat Nap2b (converted)
Procedure: HEK293 cells were obtained from the American Type Culture collection and propagated per their instructions. […] Cells were lysed by addition of 20 μL 0.1% Tween 80 followed by 100 μL scintillation fluid, and counted using a TopCount (Perkin Elmer). pIC50 (the negative log of the […]) values of the test compounds were calculated using GraphPad Prism.
Measured quantity: IC50

Compound: CC(=O)NC1CCN(Cc2cccc(C(=O)Nc3ccc(N4CCCCC4)cc3-c3cc(C(=O)NCc4cccc(C(F)(F)F)c4)ccn3)c2)C1 (stereo in doubt)
Test system: rat NaP2b (SLC34A2) (Rattus norvegicus, UniProt Q9JJ09)
Measured: 1 to 7.94 µM

Recorded IC50 of `CN1CCN(CCN(C)Cc2cccc(C(=O)Nc3ccc(N4CCCCC4)cc3-c3cc(C(=O)NCc4cccc(C(F)(F)F)c4)ccn3)c2)CC1` , please.
10 to 31.6 µM

---

Documented IC50 across a set of compounds
Test system: human NaP2b (SLC34A2) (Homo sapiens)
Construct: host or cells: HEK293
Test summary: Inhibition of NaP2b-mediated Pi (33P) uptake in transfected HEK293 cells, human NaP2b
Type: cell-based
Measurement conditions: HEK293 cells transfected with human NaP2b, 100 uM phosphate, 0.1 nM to 30 uM, read-out: pIC50 range for human NaP2b (converted)

Below, each entry is followed by its recorded IC50 result.
Molecule smiles: CCN(CC)c1ccc(NC(=O)c2cccc(Cn3ccc4c(C(=O)NCCOCCOCCOCCC(=O)O)cccc43)c2)c(-c2cc(C(=O)N[C@H]3CCCc4ccccc43)ccn2)c1
IC50: < 1 µM

Molecule smiles: CCN(CC)c1ccc(NC(=O)c2cccc(CCCOCCOCCOCCOCCNC(=O)c3cccc(CCCOCCOCCOCCOCCOCCOCCOCCOCCOC)c3)c2)c(-c2cc(C(=O)NCc3cccc(C(F)(F)F)c3)ccn2)c1
IC50: < 1 µM

Molecule smiles: CCN(CC)c1ccc(NC(=O)c2cccc(C(=O)N(C)CCN3CCOCC3)c2)c(-c2cc(C(=O)NCc3cccc(C(F)(F)F)c3)ccn2)c1
IC50: < 1 µM

Shifting focus to the compound that follows.
Quick one: IC50 for `CCN(CC)c1ccc(NC(=O)c2cccc(COCCOCCOCCOCCOC(=O)N(CCO)CCO)c2)c(-c2cc(C(=O)NCc3cccc(C(F)(F)F)c3)ccn2)c1` ?
1 to 7.94 µM

---

Test system: rat NaP2b (SLC34A2) (Rattus norvegicus)
Construct: host or cells: HEK293
Test summary: Inhibition of NaP2b-mediated Pi (33P) uptake in transfected HEK293 cells, rat NaP2b
Format: cell-based
Measurement conditions: HEK293 cells transfected with rat NaP2b, 100 uM phosphate, 0.1 nM to 30 uM, read-out: pIC50 range for rat Nap2b (converted)
Measured quantity: IC50

Dear colleague, I am looking for the recorded IC50 of the following compound: `O=C(O)CCSCc1cccc(C(=O)Nc2ccc(F)cc2-c2cc(C(=O)NCc3cccc(C(F)(F)F)c3)ccn2)c1`
1 to 7.94 µM
